# system.under.test: HIV-1 RT-associated RNase H (Human immunodeficiency virus type 1 group M subtype B)
# Construct: The 1:1 ratio between the p66/p51 subunits was also verified; His tag (implied only by Ni-NTA IMAC purification); made in house; host or cells: Escherichia coli M15
# method: HIV-1 DNA polymerase-independent RNase H activity determination
# Assay type: biochemical
# measurement.parameters: wt HIV-1 RT; three independent experiments, average ± standard deviation; read-out: RNase H IC50

[
  {
    "molecule": "COc1ccc(-c2csc(N/N=C3\\C(=O)Nc4ccc(Cl)cc43)n2)cc1 [11b]",
    "system.under.test": "HIV-1 RT-associated RNase H (Human immunodeficiency virus type 1 group M subtype B)",
    "IC50 (µM)": 7
  },
  {
    "molecule": "O=C1Nc2ccc([N+](=O)[O-])cc2/C1=N/Nc1nc(-c2ccc(Br)cc2)cs1 [3a]",
    "system.under.test": "HIV-1 RT-associated RNase H (Human immunodeficiency virus type 1 group M subtype B)",
    "IC50 (µM)": 4.3
  },
  {
    "molecule": "Cc1ccc(-c2csc(N/N=C3\\C(=O)Nc4ccc([N+](=O)[O-])cc43)n2)cc1 [10a]",
    "system.under.test": "HIV-1 RT-associated RNase H (Human immunodeficiency virus type 1 group M subtype B)",
    "IC50 (µM)": 8.5
  },
  {
    "molecule": "Cn1c(-c2ccc(Cl)c(Cl)c2)cs/c1=N\\N=C1/C(=O)Nc2ccc([N+](=O)[O-])cc21 [9c]",
    "system.under.test": "HIV-1 RT-associated RNase H (Human immunodeficiency virus type 1 group M subtype B)",
    "IC50 (µM)": 1.9
  },
  {
    "molecule": "O=C1Nc2ccc(Cl)cc2/C1=N/Nc1nc(-c2cccc([N+](=O)[O-])c2)cs1 [8b]",
    "system.under.test": "HIV-1 RT-associated RNase H (Human immunodeficiency virus type 1 group M subtype B)",
    "IC50 (µM)": 22
  },
  {
    "molecule": "Cn1c(-c2ccc(F)cc2)cs/c1=N\\N=C1/C(=O)Nc2ccc([N+](=O)[O-])cc21 [2c]",
    "system.under.test": "HIV-1 RT-associated RNase H (Human immunodeficiency virus type 1 group M subtype B)",
    "IC50 (µM)": 5.6
  },
  {
    "molecule": "O=C1Nc2ccc([N+](=O)[O-])cc2/C1=N/Nc1nc(-c2ccc(F)cc2F)cs1 [7a]",
    "system.under.test": "HIV-1 RT-associated RNase H (Human immunodeficiency virus type 1 group M subtype B)",
    "IC50 (µM)": 6
  },
  {
    "molecule": "Cn1c(-c2ccc(Cl)cc2)cs/c1=N\\N=C1/C(=O)Nc2ccc([N+](=O)[O-])cc21 [1c]",
    "system.under.test": "HIV-1 RT-associated RNase H (Human immunodeficiency virus type 1 group M subtype B)",
    "IC50 (µM)": 8.2
  }
]

====

Measured CC50 accompanies every entry in the list below.
# method: Viability of infected MT4 cells (cytotoxicity)
# Assay type: cell-based
# measurement.parameters: human, MT4 cells infected with HIV-1; infected MT4 cells viability; three independent experiments, average ± standard deviation
measured.parameter: CC50 (µM)

[
  {
    "compound": "O=C1Nc2ccc(Cl)cc2/C1=N/Nc1nc(-c2ccc(Br)cc2)cs1",
    "measured.parameter": "CC50",
    "result.comparator": "=",
    "measured.value": 95
  },
  {
    "compound": "Cn1c(-c2ccccc2)cs/c1=N\\N=C1/C(=O)Nc2ccc([N+](=O)[O-])cc21 [12c]",
    "measured.parameter": "CC50",
    "result.comparator": "=",
    "measured.value": 10
  },
  {
    "compound": "O=C1Nc2ccc([N+](=O)[O-])cc2/C1=N/Nc1nc(-c2ccc(F)cc2)cs1",
    "measured.parameter": "CC50",
    "result.comparator": ">",
    "measured.value": 100
  },
  {
    "compound": "Cn1c(-c2ccc(Cl)cc2)cs/c1=N\\N=C1/C(=O)Nc2ccc([N+](=O)[O-])cc21",
    "measured.parameter": "CC50",
    "result.comparator": "=",
    "measured.value": 42
  },
  {
    "compound": "O=C1Nc2ccc([N+](=O)[O-])cc2/C1=N/Nc1nc(-c2ccc(Br)cc2)cs1",
    "measured.parameter": "CC50",
    "result.comparator": ">",
    "measured.value": 100
  },
  {
    "compound": "COc1ccc(-c2csc(N/N=C3\\C(=O)Nc4ccc(Cl)cc43)n2)cc1 [11b]",
    "measured.parameter": "CC50",
    "result.comparator": "=",
    "measured.value": 70
  },
  {
    "compound": "O=C1Nc2ccc([N+](=O)[O-])cc2/C1=N/Nc1nc(-c2ccc(Cl)cc2)cs1",
    "measured.parameter": "CC50",
    "result.comparator": ">",
    "measured.value": 100
  },
  {
    "compound": "COc1ccc(-c2csc(N/N=C3\\C(=O)Nc4ccc([N+](=O)[O-])cc43)n2)cc1 [11a]",
    "measured.parameter": "CC50",
    "result.comparator": ">",
    "measured.value": 100
  },
  {
    "compound": "Cn1c(-c2ccc(Cl)c(Cl)c2)cs/c1=N\\N=C1/C(=O)Nc2ccc([N+](=O)[O-])cc21",
    "measured.parameter": "CC50",
    "result.comparator": "=",
    "measured.value": 5
  },
  {
    "compound": "O=C1Nc2ccc(Cl)cc2C1=NNc1nc(-c2ccc(Cl)cc2)cs1",
    "measured.parameter": "CC50",
    "result.comparator": ">",
    "measured.value": 100
  },
  {
    "compound": "O=C1Nc2ccc(Cl)cc2/C1=N/Nc1nc(-c2ccccc2)cs1 [12b]",
    "measured.parameter": "CC50",
    "result.comparator": "=",
    "measured.value": 70
  },
  {
    "compound": "N#Cc1ccc(-c2csc(N/N=C3\\C(=O)Nc4ccc([N+](=O)[O-])cc43)n2)cc1",
    "measured.parameter": "CC50",
    "result.comparator": ">",
    "measured.value": 100
  },
  {
    "compound": "O=C1Nc2ccc(Cl)cc2/C1=N/Nc1nc(-c2ccc(Cl)c(Cl)c2)cs1",
    "measured.parameter": "CC50",
    "result.comparator": ">",
    "measured.value": 100
  },
  {
    "compound": "Cc1ccc(-c2csc(NN=C3C(=O)Nc4ccc(Cl)cc43)n2)cc1 [10b]",
    "measured.parameter": "CC50",
    "result.comparator": ">",
    "measured.value": 100
  },
  {
    "compound": "O=C1Nc2ccc([N+](=O)[O-])cc2/C1=N/Nc1nc(-c2ccc(Cl)c(Cl)c2)cs1",
    "measured.parameter": "CC50",
    "result.comparator": ">",
    "measured.value": 100
  },
  {
    "compound": "Cn1c(-c2ccc(-c3ccccc3)cc2)cs/c1=N\\N=C1/C(=O)Nc2ccc([N+](=O)[O-])cc21",
    "measured.parameter": "CC50",
    "result.comparator": "=",
    "measured.value": 7
  },
  {
    "compound": "Cc1ccc(-c2csc(N/N=C3\\C(=O)Nc4ccc([N+](=O)[O-])cc43)n2)cc1 [10a]",
    "measured.parameter": "CC50",
    "result.comparator": ">",
    "measured.value": 100
  }
]

====

# method: Viability of infected MT4 cells (cytotoxicity)
# Type: cell-based
# measurement.parameters: human, MT4 cells infected with HIV-1; infected MT4 cells viability; three independent experiments, average ± standard deviation

[
  {
    "compound": "Cc1ccc(-c2cs/c(=N\\N=C3/C(=O)Nc4ccc([N+](=O)[O-])cc43)n2C)cc1 [10c]",
    "result.comparator": "=",
    "CC50 (µM)": 10
  },
  {
    "compound": "O=C1Nc2ccc([N+](=O)[O-])cc2/C1=N/Nc1nc(-c2ccccc2)cs1 [12a]",
    "result.comparator": ">",
    "CC50 (µM)": 100
  },
  {
    "compound": "N#Cc1ccc(-c2csc(N/N=C3\\C(=O)Nc4ccc(Cl)cc43)n2)cc1",
    "result.comparator": "=",
    "CC50 (µM)": 95
  },
  {
    "compound": "COc1ccc(-c2cs/c(=N\\N=C3/C(=O)Nc4ccc([N+](=O)[O-])cc43)n2C)cc1 [11c]",
    "result.comparator": "=",
    "CC50 (µM)": 2
  },
  {
    "compound": "O=C1Nc2ccc(Cl)cc2/C1=N/Nc1nc(-c2ccc([N+](=O)[O-])cc2)cs1",
    "result.comparator": "=",
    "CC50 (µM)": 50
  },
  {
    "compound": "Cn1c(-c2ccc(F)cc2)cs/c1=N\\N=C1/C(=O)Nc2ccc([N+](=O)[O-])cc21",
    "result.comparator": "=",
    "CC50 (µM)": 7
  },
  {
    "compound": "Cn1c(-c2ccc(Br)cc2)cs/c1=N\\N=C1/C(=O)Nc2ccc([N+](=O)[O-])cc21",
    "result.comparator": "=",
    "CC50 (µM)": 25
  },
  {
    "compound": "O=C1Nc2ccc(Cl)cc2/C1=N/Nc1nc(-c2ccc(F)cc2)cs1",
    "result.comparator": "=",
    "CC50 (µM)": 56
  },
  {
    "compound": "O=C1Nc2ccc([N+](=O)[O-])cc2/C1=N/Nc1nc(-c2ccc(-c3ccccc3)cc2)cs1",
    "result.comparator": ">",
    "CC50 (µM)": 100
  }
]
